# reported pIC50; entries follow
target: human MTP (Homo sapiens, UniProt P55157)
Sequence (P55157 19-894): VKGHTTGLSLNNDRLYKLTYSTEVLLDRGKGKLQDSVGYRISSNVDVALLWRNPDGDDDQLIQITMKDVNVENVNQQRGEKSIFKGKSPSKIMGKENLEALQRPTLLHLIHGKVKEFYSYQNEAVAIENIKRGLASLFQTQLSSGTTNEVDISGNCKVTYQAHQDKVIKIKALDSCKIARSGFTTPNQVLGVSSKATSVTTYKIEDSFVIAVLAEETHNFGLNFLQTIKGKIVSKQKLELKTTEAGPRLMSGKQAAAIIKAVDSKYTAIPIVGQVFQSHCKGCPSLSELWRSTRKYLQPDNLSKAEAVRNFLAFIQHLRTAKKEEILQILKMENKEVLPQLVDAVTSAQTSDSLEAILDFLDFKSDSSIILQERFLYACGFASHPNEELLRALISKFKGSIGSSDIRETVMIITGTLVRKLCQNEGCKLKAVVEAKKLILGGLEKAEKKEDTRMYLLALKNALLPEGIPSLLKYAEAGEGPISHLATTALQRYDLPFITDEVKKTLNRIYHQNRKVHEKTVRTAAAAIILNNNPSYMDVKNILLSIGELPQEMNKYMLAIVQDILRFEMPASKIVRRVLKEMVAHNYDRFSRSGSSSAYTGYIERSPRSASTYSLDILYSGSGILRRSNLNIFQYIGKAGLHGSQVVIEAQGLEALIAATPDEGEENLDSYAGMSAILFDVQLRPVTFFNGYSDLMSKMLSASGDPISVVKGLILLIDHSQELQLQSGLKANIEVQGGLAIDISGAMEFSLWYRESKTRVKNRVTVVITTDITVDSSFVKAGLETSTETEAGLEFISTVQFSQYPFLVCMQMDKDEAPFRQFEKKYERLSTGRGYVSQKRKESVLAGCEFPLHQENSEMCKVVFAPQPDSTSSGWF
Sequence (P07237 18-508 partner): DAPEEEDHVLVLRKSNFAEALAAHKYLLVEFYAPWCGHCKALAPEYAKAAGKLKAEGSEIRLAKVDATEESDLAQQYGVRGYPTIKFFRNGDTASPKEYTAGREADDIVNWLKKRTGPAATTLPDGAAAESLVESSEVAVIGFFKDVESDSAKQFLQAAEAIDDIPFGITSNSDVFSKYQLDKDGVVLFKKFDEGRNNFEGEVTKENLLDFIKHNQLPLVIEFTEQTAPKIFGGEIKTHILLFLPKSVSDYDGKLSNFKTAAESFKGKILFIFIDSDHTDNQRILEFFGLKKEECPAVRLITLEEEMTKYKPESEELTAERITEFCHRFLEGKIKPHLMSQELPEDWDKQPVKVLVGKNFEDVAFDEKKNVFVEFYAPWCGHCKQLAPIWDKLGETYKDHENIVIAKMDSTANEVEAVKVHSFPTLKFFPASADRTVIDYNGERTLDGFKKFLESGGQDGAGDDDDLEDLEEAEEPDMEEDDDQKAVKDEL
Remember the convention: pIC50 equals -log10 of concentration in molar.

Example cases with answers are listed next.
O=C(Nc1ccc(N2CCN(C(C(=O)c3ccccc3)c3ccccc3)CC2)cc1)c1ccccc1-c1ccc(C(F)(F)F)cc1 (stereo not drawn); 7.40
COC(=O)C(c1ccccc1)N1CCN(c2ccc(NC(=O)c3ccccc3-c3ccc(C(F)(F)F)cc3)cc2)CC1 (stereo not drawn); 8.49

Would you kindly look at the next entry?
Input: Find the recorded pIC50 belonging to O=C(Nc1ccc(N2CCN(C(Cn3cccn3)c3ccccc3)CC2)cc1)c1ccccc1-c1ccc(C(F)(F)F)cc1 (stereo not drawn) and report it.
Output: 6.80
